target: P-selectin; test: Inhibitory test on the binding of P-selectin to sialyl Le^X (selectin-IgG chimera); settings: inhibition of P-selectin IgG chimera binding to sialyl Le^X-pentaceramide
ENDPOINT: IC50 (nM)

Below: 10 compounds and their reported IC50.
SAMPLE SMILES: CCCCCCCCCCCCCCC(CCCCCCCCCCCCCC)C(=O)N[C@H](CO[C@H]1O[C@@H](C)[C@@H](O)[C@@H](O)[C@@H]1O)C(=O)N[C@H](CCC(=O)O)C(=O)NC
ASSAYED TARGET: P-selectin
OUTPUT UNIT: nM
IC50: 300
//
SAMPLE SMILES: CCCCCCCCCCCCCCC(CCCCCCCCCCCCCC)C(=O)N[C@H](CO[C@@H]1O[C@H]([C@H](C)O)[C@@H](O)[C@@H]1O)C(=O)N[C@@H](CCC(=O)O)C(=O)NC
ASSAYED TARGET: P-selectin
OUTPUT UNIT: nM
IC50: 300
//
SAMPLE SMILES: CCCCCCCCCCCCCCC(CCCCCCCCCCCCCC)C(=O)N[C@@H](CO[C@@H]1O[C@H]([C@H](C)O)[C@@H](O)[C@@H]1O)C(=O)N[C@H](CCC(=O)O)C(=O)Nc1ccccc1
ASSAYED TARGET: P-selectin
OUTPUT UNIT: nM
IC50: 100
//
SAMPLE SMILES: CCCCCCCCCCCCCCC(CCCCCCCCCCCCCC)C(=O)N[C@@H](CO[C@H]1O[C@@H](C)[C@@H](O)[C@@H](O)[C@@H]1O)C(=O)N[C@@H](CCC(=O)O)C(=O)NC
ASSAYED TARGET: P-selectin
OUTPUT UNIT: nM
IC50: 600
//
SAMPLE SMILES: CCCCCCCCCCCCCCC(CCCCCCCCCCCCCC)C(=O)N[C@H](CO[C@@H]1O[C@@H](C)[C@@H](O)[C@@H](O)[C@@H]1O)C(=O)N[C@H](CCC(=O)O)C(=O)NC
ASSAYED TARGET: P-selectin
OUTPUT UNIT: nM
IC50: 2100
//
SAMPLE SMILES: CCCCCCCCCCCCCCC(CCCCCCCCCCCCCC)C(=O)N[C@@H](CS[C@@H]1O[C@@H](C)[C@@H](O)[C@@H](O)[C@@H]1O)C(=O)N[C@@H](CCC(=O)O)C(=O)NC
ASSAYED TARGET: P-selectin
OUTPUT UNIT: nM
IC50: 100
//
SAMPLE SMILES: CCCCCCCCCCCCCCC(CCCCCCCCCCCCCC)C(=O)N[C@H](CO[C@@H]1O[C@@H](C)[C@@H](O)[C@@H](O)[C@@H]1O)C(=O)N[C@@H](CCC(=O)O)C(=O)NC
ASSAYED TARGET: P-selectin
OUTPUT UNIT: nM
IC50: 700
//
SAMPLE SMILES: CCCCCCCCCCCCCCC(CCCCCCCCCCCCCC)C(=O)N[C@@H](CO[C@@H]1O[C@H]([C@H](C)O)[C@@H](O)[C@@H]1O)C(=O)N[C@H](CCC(=O)O)C(=O)NC
ASSAYED TARGET: P-selectin
OUTPUT UNIT: nM
IC50: 1000
//
SAMPLE SMILES: CCCCCCCCCCCCCCC(CCCCCCCCCCCCCC)C(=O)N[C@@H](CO[C@@H]1O[C@H]([C@H](C)O)[C@@H](O)[C@@H]1O)C(=O)NCCCC(=O)O
ASSAYED TARGET: P-selectin
OUTPUT UNIT: nM
IC50: 500
//
SAMPLE SMILES: CCCCCCCCCCCCCCC(CCCCCCCCCCCCCC)C(=O)N[C@H](CO[C@H]1O[C@@H](C)[C@@H](O)[C@@H](O)[C@@H]1O)C(=O)N[C@@H](CCC(=O)O)C(=O)NC
ASSAYED TARGET: P-selectin
OUTPUT UNIT: nM
IC50: 300

P = CCCCCCCCCCCCCCC(CCCCCCCCCCCCCC)C(=O)N[C@H](CO[C@@H]1O[C@H]([C@H](C)O)[C@@H](O)[C@@H]1O)C(=O)N[C@H](CCC(=O)O)C(=O)NC
Q = CCCCCCCCCCCCCCC(CCCCCCCCCCCCCC)C(=O)N[C@@H](CO[C@H]1O[C@@H](C)[C@@H](O)[C@@H](O)[C@@H]1O)C(=O)N[C@H](CCC(=O)O)C(=O)NC
R = CCCCCCCCCCCCCCC(CCCCCCCCCCCCCC)C(=O)N[C@@H](CO[C@@H]1O[C@H]([C@H](C)O)[C@@H](O)[C@@H]1O)C(=O)N[C@@H](CCC(=O)O)C(=O)NC
Arrange by IC50, high to low. To answer, write out the labels according to the requested order.
R, Q, P
(R: 1300 nM, Q: 300 nM, P: 200 nM)

I = CCCCCCCCCCCCCCC(CCCCCCCCCCCCCC)C(=O)N[C@@H](CS[C@@H]1O[C@@H](C)[C@@H](O)[C@@H](O)[C@@H]1O)C(=O)N[C@H](CCC(=O)O)C(=O)NC
II = CCCCCCCCCCCCCCC(CCCCCCCCCCCCCC)C(=O)N[C@@H](CO[C@@H]1O[C@H]([C@H](C)O)[C@@H](O)[C@@H]1O)C(=O)NCCCCC(=O)O
Response body: label of entry with the larger IC50; valid values I , II . In your reply, give the label of the chosen option.
II

A = CCCCCCCCCCCCCCC(CCCCCCCCCCCCCC)C(=O)N[C@H](CS[C@@H]1O[C@@H](C)[C@@H](O)[C@@H](O)[C@@H]1O)C(=O)N[C@@H](CCC(=O)O)C(=O)NC
B = CCCCCCCCCCCCCCC(CCCCCCCCCCCCCC)C(=O)N[C@H](CS[C@@H]1O[C@@H](C)[C@@H](O)[C@@H](O)[C@@H]1O)C(=O)N[C@H](CCC(=O)O)C(=O)NC
Could you tell me which of these two has the smaller IC50 figure? First: A Second: B In your reply, give the label of the chosen option.
A
(A: 100 nM, B: 300 nM)

Origin of the recorded values: patent US5919769A
